Recorded values, source patent US20100056524A1.

The entries below come with measured IC50 values attached.
# target.entity: TBK1 (Homo sapiens)
# Construct: All protein kinases were of human origin and encoded full length proteins, unless indicated otherwise; His6; made in house; host or cells: insect Sf21 cells
# assay.summary: TBK1 protein kinase assay ([γ-33P]ATP, P81 filterplates)
# Assay type: biochemical
# condition.details: 50 μM ATP; read-out: Potency (TBK1 IC50 potency score)

Previously resolved entries follow.
In [3]: df
Out[3]:
                                   compound  property_label          result
0  O=C(NCCCNc1nc(Nc2cccc(N3CCOCC3)c2)ncc1C1CC1)C1CCC1 [Example 41]            IC50        < 100 nM
1  O=C(NCCCNc1nc(Nc2ccc(CN3CCCC(F)(F)C3)nc2)ncc1C1CC1)C1CCC1 [Example 157]            IC50        < 100 nM
2  Cn1cccc1C(=O)NCCCNc1nc(Nc2cccc(F)c2)ncc1C1CC1 [Example 16]            IC50  100 to 1000 nM

Sure, the documented IC50 for O=c1c(C(F)(F)F)cccn1CCCNc1nc(Nc2cccc(F)c2)ncc1C1CC1 [Example 114] is 100 to 1000 nM

Sample O=C(NCCCNc1nc(Nc2cccc(F)c2)ncc1C1CC1)C1CC1 [Example 25] ; IC50 observed: 100 to 1000 nM

###

As shown below, each of these compounds has a reported pIC50 value.
# target.entity: TBK1 (Homo sapiens)
# Construct: All protein kinases were of human origin and encoded full length proteins, unless indicated otherwise; His6; made in house; host or cells: insect Sf21 cells
# assay.summary: TBK1 protein kinase assay ([γ-33P]ATP, P81 filterplates)
# Type: biochemical
# condition.details: 50 μM ATP; read-out: Potency (TBK1 IC50 potency score)
pIC50: −log10 of the molar value. Counter-ions that a name gives are not always drawn.

Some compounds with recorded pIC50:
                                   compound        result
0  Cn1ccnc1C(=O)NCCCNc1nc(Nc2cccc(F)c2)ncc1C1CC1  5.00 to 6.00
1  O=C(NCCCNc1nc(Nc2ccc3[nH]ncc3c2)ncc1C1CC1)C1CCC1        > 7.00
2  O=C(NCCCNc1nc(Nc2cccc(F)c2)ncc1C1CC1)C1CCCCC1 [Example 3, trifluoroacetic acid salt]        > 7.00

The measured pIC50 associated with CN(CCCNC(=O)C1CCC1)c1nc(Nc2cccc(F)c2)ncc1C1CC1 reads 6.00 to 7.00

GET /value?item= O=C(NCCCNc1nc(Nc2cccc(NC(=O)N3CCCC3)c2)ncc1C1CC1)C1CCC1 &field=pIC50 returns > 7.00

Kindly note the recorded pIC50 for O=C(NCCCNc1nc(Nc2ccc(-n3cncn3)cc2)ncc1C1CC1)C1CCC1 , which is > 7.00

###

# target.entity: TBK1 (Homo sapiens, UniProt Q9UHD2)
# Construct: All protein kinases were of human origin and encoded full length proteins, unless indicated otherwise; His6; made in house; host or cells: insect Sf21 cells
# Sequence (Q9UHD2 whole entry): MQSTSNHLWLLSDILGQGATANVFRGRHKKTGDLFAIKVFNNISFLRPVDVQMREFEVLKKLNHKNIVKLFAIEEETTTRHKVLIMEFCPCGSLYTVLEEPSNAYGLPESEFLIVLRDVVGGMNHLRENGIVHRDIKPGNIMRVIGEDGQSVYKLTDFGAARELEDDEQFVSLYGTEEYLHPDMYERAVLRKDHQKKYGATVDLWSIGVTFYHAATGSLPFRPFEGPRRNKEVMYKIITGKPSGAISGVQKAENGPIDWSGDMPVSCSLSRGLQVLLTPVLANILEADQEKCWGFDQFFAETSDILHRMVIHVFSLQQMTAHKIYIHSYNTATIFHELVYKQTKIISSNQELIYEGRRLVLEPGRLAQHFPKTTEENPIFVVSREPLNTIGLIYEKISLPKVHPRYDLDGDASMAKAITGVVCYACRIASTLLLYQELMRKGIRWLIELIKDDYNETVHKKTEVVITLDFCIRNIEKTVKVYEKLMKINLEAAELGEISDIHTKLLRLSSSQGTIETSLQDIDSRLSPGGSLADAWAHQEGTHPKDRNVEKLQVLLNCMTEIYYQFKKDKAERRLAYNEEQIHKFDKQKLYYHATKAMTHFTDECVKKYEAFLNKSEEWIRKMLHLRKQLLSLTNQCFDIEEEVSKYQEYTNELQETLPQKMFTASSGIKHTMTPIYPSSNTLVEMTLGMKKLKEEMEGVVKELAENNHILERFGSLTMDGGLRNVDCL
# assay.summary: TBK1 protein kinase assay ([γ-33P]ATP, P81 filterplates)
# Type: biochemical
# condition.details: 50 μM ATP; read-out: Potency (TBK1 IC50 potency score)
pIC50: −log10 of the molar value.
property.label: pIC50

# annotated cases, reported pIC50 shown
In [3]: df
Out[3]:
                               smiles_input                        target_entity  result
0  O=C(NCCCNc1nc(Nc2ccc3cnn(C4CC4)c3c2)ncc1C1CC1)C1CCC1  TBK1 (Homo sapiens, UniProt Q9UHD2)  > 7.00
1  CN(Cc1cccc(Nc2ncc(C3CC3)c(NCCCNC(=O)C3CCC3)n2)c1)C1CCCC1  TBK1 (Homo sapiens, UniProt Q9UHD2)  > 7.00
2  O=C(NCCCNc1nc(Nc2ccc(-c3cnco3)nc2)ncc1C1CC1)C1CCC1  TBK1 (Homo sapiens, UniProt Q9UHD2)  > 7.00

Memo: O=C(NCCCNc1nc(Nc2ccc3nccnc3c2)ncc1C1CC1)c1cccs1 , reported pIC50: 6.00 to 7.00
